meta.source: PubChem BioAssay (EPA / NIEHS)

# Read-out: Interleukin-8 (IL8), CXCL8 (gene 3576)
# Protocol Summary: BSK_CASM3C_IL8: BioMAP Diversity Plus: CASM3C Assay for Interleukin-8 (IL8) Biomarker Activity (AID 2283042);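 further: IL-8 protein level quantified by ELISA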
# Cond: primary human coronary artery smooth muscle cells; actives raise or lower the signal
Active and inactive are the calls of the source. How the source made its calls: active means hit-call score of the fitted dose curve at least 0.9, where 1 is the maximum; inactive means score below 0.9.
Pick one and only one: YES (active), NO (inactive)

Examples with answers:
>>> df
                                   molecule  category_label
0   C=CC(=O)OCC(Br)CBr (stereo unspecified)             YES
1                    O=c1c2ccccc2oc2ccccc12              NO
2                   S=C(NC1CCCCC1)NC1CCCCC1              NO
3     CCCCCCCCc1ccc(Nc2ccc(CCCCCCCC)cc2)cc1              NO
4  CCOc1nc(F)cc2nc(S(=O)(=O)Nc3c(Cl)cccc3C(=O)OC)nn12              NO
5    CCCCNc1ccc(NCCCC)c2c1C(=O)c1ccccc1C2=O              NO
6              O=C(c1ccc(O)cc1)c1ccc(O)cc1O              NO
7                   C=CCOc1c(Br)cc(Br)cc1Br             YES
8                            O=Nc1ccc(O)cc1              NO
9         O=C(Cl)c1cc(C(=O)Cl)cc(C(=O)Cl)c1             YES

Q: Record lookup: outcome of this test for C#CC1(O)CC[C@H]2[C@@H]3CCC4=CCCC[C@@H]4[C@H]3CC[C@@]21C (stereo partly specified) ?
Result: YES

Q: Status in this test for "CCCCCCCCCCCCCCCC[N+](C)(C)CC" ?
Result: YES

* * *

# Protocol Summary: ATG_ISRE_CIS: Attagene CIS-FACTORIAL HepG2 Assay for human Interferon Regulatory Factor 1 (IRF1) binding to an Interferon-Stimulated Response Element (ISRE) (AID 2282948)
# Cond: HepG2 ISRE cis-reporter (Attagene), mRNA transcription readout; actives raise or lower the signal
Active and inactive are the calls of the source. How the source made its calls: active means hit-call score of the fitted dose curve at least 0.9, where 1 is the maximum; inactive means score below 0.9.
Pick one and only one: t for active, f for inactive

Compound	Category Label
CO[Si](OC)(OC)c1ccccc1	f
C[C@]12C=CC(=O)C=C1CC[C@@H]1[C@@H]2[C@@H](O)C[C@@]2(C)[C@H]1CC[C@]2(O)C(=O)CO	f
Cc1cc(C)c(C(=O)O)c(C)c1	f
CC1OC1C1CCC2(C)OC2C1 (stereo unspecified)	f
COC(=O)c1sccc1S(N)(=O)=O	f

Q: Tell me the assay call for CC(=O)OC1C2(C)CCC(C2)C1(C)C (stereo unspecified) please.
Result: f

Q: // return assay outcome for "O=C(O)CCCCCCCCCC(=O)O"
Result: f

Q: Check the results log: what was the call for "CC(C)COC(=O)C=Cc1ccccc1" ?
Result: f

Q: Which result was noted for this compound in the test: "C=CC(=O)OCCC(=O)O"
Result: f

Q: // return assay outcome for "C=C(C)C(=O)OCC(C)C"
Result: f

Q: // outcome(item) with item = "CCCCCCOc1cc(C)c(O)c(C)c1C"
Result: f

Q: // outcome(item) with item = "C[Si](C)(C)O[Si](O)(O)O"
Result: f

Q: Fill in: this test's call for "COc1ccc([C@@H]2CC(=O)c3c(O)cc(O[C@@H]4O[C@H](CO[C@@H]5O[C@@H](C)[C@H](O)[C@@H](O)[C@H]5O)[C@@H](O)[C@H](O)[C@H]4O)cc3O2)cc1OC" is ___
Result: f

Q: I'd appreciate the recorded outcome for "COc1ccc(-c2coc3cc(O)ccc3c2=O)cc1" from this test.
Result: f

* * *

# Read-out: Monocyte Chemoattractant Protein-1 (MCP1), CCL2 (gene 6347)
# Protocol Summary: BSK_4H_MCP1: BioMAP Diversity Plus: 4H Assay for Monocyte Chemoattractant Protein-1 (MCP1) Biomarker Activity (AID 2283018)
# Cond: primary human endothelial cells (HUVEC); actives raise or lower the signal
# Description: BSK_4H is a cell-based, multiplexed-readout assay that uses umbilical vein endothelium, a human vascular primary cell, with measurements taken at 24 hours after chemical dosing in a 96-well plate.BSK_4H_MCP1 is an assay component measured in the BSK_4H assay. It measures MCP-1 antibody related to regulation of gene expression using ELISA technology.Data from the assay component BSK_4H_MCP1 was analyzed into 1 assay endpoint. […]
Activity calls are given as the source filed them. Rule for the calls: active = hit-call score of the fitted dose curve at least 0.9, where 1 is the maximum; inactive = score below 0.9.
A correct response names exactly one class from Y (active), N (inactive)

These recorded examples may help you get a feel for the data.
In [3]: df
Out[3]:
                       molecule  category_label
0  CCCCCCCCCCCCCCCC[N+](C)(C)CC               Y
1  O=C(c1ccc(O)cc1)c1ccc(O)cc1O               N

Q: Assay result, entry "CCCCC/C=C\C/C=C\CCCCCCCC(=O)OC" — outcome?
Result: N

Q: Hi, do you know how "CCO[Si](CCCN=C=O)(OCC)OCC" came out in this test?
Result: N

Q: What was the test verdict on "O=C(Nc1ccccc1SSc1ccccc1NC(=O)c1ccccc1)c1ccccc1" ?
Result: Y

Q: Name the outcome recorded for "C=C[Si](OC(C)=O)(OC(C)=O)OC(C)=O" in the assay.
Result: N

Q: Which outcome did this test record for the molecule C=CC(=O)OCC(Br)CBr (configuration not stated) ?
Result: Y

Q: Call for entry "C/C=C\C/C=C/CCCCCCCCOC(C)=O" :
Result: N

* * *

# Target: Cellular tumor antigen p53 (Homo sapiens) (UniProt P04637)
# Sequence (P04637 whole entry, looked up): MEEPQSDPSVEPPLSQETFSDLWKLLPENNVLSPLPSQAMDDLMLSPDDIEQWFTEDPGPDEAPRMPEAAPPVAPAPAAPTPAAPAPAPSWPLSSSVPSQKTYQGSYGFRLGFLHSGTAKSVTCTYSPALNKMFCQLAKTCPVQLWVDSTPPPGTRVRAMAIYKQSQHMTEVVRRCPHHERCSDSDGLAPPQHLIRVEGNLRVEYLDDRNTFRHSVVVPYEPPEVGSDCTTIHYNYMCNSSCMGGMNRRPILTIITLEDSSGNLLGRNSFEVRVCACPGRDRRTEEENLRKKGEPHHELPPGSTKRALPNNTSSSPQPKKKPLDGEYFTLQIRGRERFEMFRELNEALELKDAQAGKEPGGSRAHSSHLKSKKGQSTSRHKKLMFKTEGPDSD
# Protocol Summary: TOX21_p53_BLA_p2_ratio: Tox21 HCT-116 p53 Agonism Beta-lactamase Assay, Ratio, Phase 2 (AID 2283592)
Inconclusive results are not listed. Activity calls are given as the source filed them. The calls were made as follows: active = hit-call score of the fitted dose curve at least 0.9, where 1 is the maximum; inconclusive = response in the unintended direction; inactive = score below 0.9.
Permitted responses: T for active, F for inactive

# count of solved cases: 3
                               compound  category_label
0      CC1=NC(C)OC1C (stereo not drawn)               F
1  c1ccc2c(c1)ccc1cc3c(ccc4ccccc43)cc12               F
2              COC(=O)c1sccc1S(N)(=O)=O               F

Q: For this compound, state the assay outcome: "C=C[Si](OC(C)=O)(OC(C)=O)OC(C)=O"
Result: F

Q: Record lookup: outcome of this test for "CCCCCCCCCCCCCCCCCC#N" ?
Result: F

Q: What is the recorded call for this compound in the test? "O=C(Cl)c1cc(C(=O)Cl)cc(C(=O)Cl)c1"
Result: F

* * *

# Target: Hepatocyte nuclear factor 3-beta (Homo sapiens) (UniProt Q9Y261)
# Sequence (Q9Y261 whole entry, looked up): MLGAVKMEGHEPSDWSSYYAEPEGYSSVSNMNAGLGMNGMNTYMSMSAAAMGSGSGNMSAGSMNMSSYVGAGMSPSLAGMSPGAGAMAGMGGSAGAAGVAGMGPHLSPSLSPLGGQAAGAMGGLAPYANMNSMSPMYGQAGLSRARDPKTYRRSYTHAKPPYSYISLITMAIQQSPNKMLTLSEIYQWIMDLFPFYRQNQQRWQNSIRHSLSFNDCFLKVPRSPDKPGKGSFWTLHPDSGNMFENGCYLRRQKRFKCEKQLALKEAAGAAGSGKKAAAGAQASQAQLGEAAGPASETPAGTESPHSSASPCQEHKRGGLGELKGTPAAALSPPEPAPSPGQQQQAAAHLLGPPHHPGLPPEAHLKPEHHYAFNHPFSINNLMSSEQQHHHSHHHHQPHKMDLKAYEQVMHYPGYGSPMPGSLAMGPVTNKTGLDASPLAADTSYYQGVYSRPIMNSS
# Protocol Summary: ATG_FoxA2_CIS: Attagene CIS-FACTORIAL HepG2 Assay for human Forkhead box A2 (FOXA2) (AID 2282942)
# Cond: HepG2 cis-reporter transcription factor activity, 24 h; actives raise or lower the signal
Activity calls are given as the source filed them. The calls were made as follows: active = hit-call score of the fitted dose curve at least 0.9, where 1 is the maximum; inactive = score below 0.9.
Quantity Name: AC50

Below, each entry is followed by its recorded AC50 result.
>>> print(df.to_string())
                                   compound                                    target    result
0                CC(C)c1ccc2cc(C(C)C)ccc2c1  Hepatocyte nuclear factor 3-beta (Homo sapiens) (UniProt Q9Y261)  inactive
1  CCCCCCCCO[C@@H]1O[C@H](CO)[C@@H](O)[C@H](O)[C@H]1O  Hepatocyte nuclear factor 3-beta (Homo sapiens) (UniProt Q9Y261)  inactive
2     CC(C)(C)c1ccc(-c2ccc(C(C)(C)C)cc2)cc1  Hepatocyte nuclear factor 3-beta (Homo sapiens) (UniProt Q9Y261)  inactive
3              COCC(C)N (centres undefined)  Hepatocyte nuclear factor 3-beta (Homo sapiens) (UniProt Q9Y261)  inactive
4  O=C(O)CC(C(=O)O)C(CC(=O)O)C(=O)O (centres undefined)  Hepatocyte nuclear factor 3-beta (Homo sapiens) (UniProt Q9Y261)  inactive

Could I get AC50 for every one of these entries?
1. O=C(O)CCCCCCCCCC(=O)O
2. CCCCCC(C)O (centres undefined)
3. CCO[Si](C)(OCC)OCC
4. CCCCCCCC[N+](C)(CCCCCCCC)CCCCCCCC
5. CCCCCCCCc1ccc(Nc2ccc(CCCCCCCC)cc2)cc1
6. CCOC(=O)[C@H](C)O
7. C=C(C)C(=O)OCC(C)C

Result:
1: inactive; 2: inactive; 3: inactive; 4: inactive; 5: inactive; 6: inactive; 7: inactive

Go through the items and report each one's AC50.
1. C=CC(=O)OCCC(=O)O
2. CCOC(=O)CC
3. CC/C=C\CCOC(=O)CCCCC
4. CCCCC/C=C\C/C=C\CCCCCCCC(=O)OC
5. C=CC(=O)OCCOC1C2CCC1C1CC=CC12 (centres undefined)
6. Nc1ccc(N=Nc2ccccc2)c(N)n1
7. CCN(CCO)c1cccc(C)c1

Result:
1: inactive; 2: inactive; 3: inactive; 4: inactive; 5: inactive; 6: inactive; 7: inactive

For each entry beneath this line, provide reported AC50.
1. CCCC(C)CCC(C)=O (centres undefined)
2. c1ccc2c(c1)ccc1cc3c(ccc4ccccc43)cc12
3. CCCCCCCCCCOC(C)=O

Result:
1: inactive; 2: 76.7 nM (active); 3: inactive

Would you be so kind as to report AC50 for each listed record?
1. CCCCCC/C=C\CCCCCCCC(=O)O
2. [Cl][Bi]([Cl])([c]1ccccc1)([c]1ccccc1)[c]1ccccc1
3. CC(C)c1ccc2c(c1)CC[C@H]1[C@](C)(CN)CCC[C@]21C
4. Cc1ccc(OC(=O)CC(C)C)cc1
5. O=C(Nc1ccccc1SSc1ccccc1NC(=O)c1ccccc1)c1ccccc1
6. NC(=O)NNC(N)=O
7. O=S(=O)(O)c1cc(S(=O)(=O)O)c2ccc3c(S(=O)(=O)O)cc(S(=O)(=O)O)c4ccc1c2c43

Result:
1. inactive
2. inactive
3. inactive
4. inactive
5. inactive
6. inactive
7. inactive
